Molecular target: SIK1 (Homo sapiens)
Construct: purchased Carna Biosciences 02-131
Sequence (P57059 whole entry): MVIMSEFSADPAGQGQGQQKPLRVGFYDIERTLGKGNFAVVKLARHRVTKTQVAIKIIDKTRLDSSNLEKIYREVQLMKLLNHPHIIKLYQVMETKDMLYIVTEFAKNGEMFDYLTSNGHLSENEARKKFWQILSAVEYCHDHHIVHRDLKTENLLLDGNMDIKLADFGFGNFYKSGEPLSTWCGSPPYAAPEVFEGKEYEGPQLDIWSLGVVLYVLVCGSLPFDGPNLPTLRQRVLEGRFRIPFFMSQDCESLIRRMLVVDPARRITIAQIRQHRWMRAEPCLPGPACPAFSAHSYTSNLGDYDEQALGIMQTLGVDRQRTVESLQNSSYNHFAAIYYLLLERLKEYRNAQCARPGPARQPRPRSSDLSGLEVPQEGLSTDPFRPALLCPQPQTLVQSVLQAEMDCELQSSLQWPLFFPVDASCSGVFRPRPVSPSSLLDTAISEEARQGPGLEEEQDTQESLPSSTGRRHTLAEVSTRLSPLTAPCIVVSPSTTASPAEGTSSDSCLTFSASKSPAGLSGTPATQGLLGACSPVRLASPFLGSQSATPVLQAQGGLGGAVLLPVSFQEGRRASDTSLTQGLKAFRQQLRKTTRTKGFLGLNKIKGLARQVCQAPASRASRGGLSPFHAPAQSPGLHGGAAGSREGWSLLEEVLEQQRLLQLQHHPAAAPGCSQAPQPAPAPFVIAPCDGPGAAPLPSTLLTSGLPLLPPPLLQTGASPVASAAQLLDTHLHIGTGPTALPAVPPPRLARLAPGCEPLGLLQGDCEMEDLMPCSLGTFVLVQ
Experiment: ADP-Glo kinase assay, SIK1
Format: biochemical
Conditions: ADP-Glo SIK kinase assay
Assay Endpoint: IC50

Solved entries:
COc1cc(-c2cnc3cc(OCCOCCN(C)C)ccn23)cc(OC(F)F)c1C(=O)NC1CC1 = 0.01 to 10 nM
CN(C)CCOc1ccn2c(-c3cc(F)c(C(=O)NC4CC4)c(OC(F)F)c3)cnc2c1 = > 500 nM
COc1cc(-c2cnc3cc(OCCN4CCCC(F)C4)ccn23)cc(OC(F)F)c1C(=O)NC1CC1 (stereo not drawn) = 10 to 100 nM
COc1cc(-c2cnc3cc(OCC4CCN(C(C)C)C4)ccn23)cc(OC(F)F)c1C(=O)NC1CC1 (stereo not drawn) = 10 to 100 nM
CCOC(=O)C1CCCN(CCCOc2ccn3c(-c4cc(OC)c(C(=O)NC5CC5)c(OC(F)F)c4)cnc3c2)C1 (stereo not drawn) = 10 to 100 nM
COc1cc(-c2cnc3cc(OCC(O)CN4CC[C@@H](O)C4)ccn23)cc(OC(F)F)c1C(=O)NC1CC1 (stereo partly drawn) = 10 to 100 nM
CCOCCOc1ccn2c(-c3cc(OC)c(C(=O)NC4CC4)c(OC(F)F)c3)cnc2c1 = 10 to 100 nM
COc1cc(-c2cnc3cc(OCCN)ccn23)cc(OC(F)F)c1C(=O)NC1CC1 = 10 to 100 nM

Please turn your attention to the following entry.
In: Give measured IC50 for `COc1cc(-c2cnc3cc(OCCCN4CC(C(=O)OC(C)(C)C)C4)ccn23)cc(OC(F)F)c1C(=O)NC1CC1` (SIK1 (Homo sapiens)).
Out: 10 to 100 nM

====

The following compounds each carry a recorded IC50 for SIK1 (Homo sapiens, UniProt P57059).

Worked cases, IC50 given:
COc1cc(-c2cnc3cc(OCC4(C)CCCCN4)ccn23)cc(OC(F)F)c1C(=O)NC1CC1 (stereo not shown) = 100 to 500 nM
COc1cc(-c2cnc3cc(OCCCN(C)C)ccn23)cc(OC(F)F)c1C(=O)NC1CC1 = 10 to 100 nM
COc1cc(-c2cnc3cc(OCC4CCO4)ccn23)cc2c1C(=O)N(CC(F)(F)F)CC2 (stereo not shown) = 100 to 500 nM
COc1cc(-c2cnc3cc(OCC4CCCCO4)ccn23)cc(OC(F)F)c1C(=O)NC1CC1 (stereo not shown) = 10 to 100 nM
COc1cc(-c2cnc3cc(OCCN4CCOC(C(F)(F)F)C4)ccn23)cc(OC(F)F)c1C(=O)NC1CC1 (stereo not shown) = 10 to 100 nM

In: Please report the measured IC50 for `COc1cc(-c2cnc3cc(OCCCN4CC(O)C4)ccn23)cc(OC(F)F)c1C(=O)NC1CC1`
Out: 10 to 100 nM

In: Identify IC50 associated with the compound `CCOC(=O)C1(c2ccccc2)CCN(CCCOc2ccn3c(-c4cc(OC)c(C(=O)NC5CC5)c(OC(F)F)c4)cnc3c2)CC1`
Out: 10 to 100 nM

====

Quick record of pIC50 values for SIK3 (Homo sapiens, UniProt Q9Y2K2).
pIC50: −log10 of the molar value.

Here's what some known entries look like.
COc1cc(-c2cnc3cc(OCCCN4CC(C(=O)OC(C)(C)C)C4)ccn23)cc(OC(F)F)c1C(=O)NC1CC1 = 8.00 to 11.00
COc1cc(-c2cnc3cc(OCC4CCCNC4)ccn23)cc(OC(F)F)c1C(=O)NC1CC1 (stereo not drawn) = 8.00 to 11.00
COc1cc(-c2cnc3cc(OCCN)ccn23)cc(OC(F)F)c1C(=O)NC1CC1 = 8.00 to 11.00
COc1cc(-c2cnc3cc(OCc4cncn4C)ccn23)cc(OC(F)F)c1C(=O)NC1CC1 = 8.00 to 11.00
CCOC(=O)CN1CCCCC1COc1ccn2c(-c3cc(OC)c(C(=O)NC4CC4)c(OC(F)F)c3)cnc2c1 (stereo not drawn) = 8.00 to 11.00

In: Fill in pIC50 for `CCOC(=O)C1(c2ccccc2)CCN(CCCOc2ccn3c(-c4cc(OC)c(C(=O)NC5CC5)c(OC(F)F)c4)cnc3c2)CC1` tested with SIK3 (Homo sapiens, UniProt Q9Y2K2).
Sequence (Q9Y2K2 whole entry): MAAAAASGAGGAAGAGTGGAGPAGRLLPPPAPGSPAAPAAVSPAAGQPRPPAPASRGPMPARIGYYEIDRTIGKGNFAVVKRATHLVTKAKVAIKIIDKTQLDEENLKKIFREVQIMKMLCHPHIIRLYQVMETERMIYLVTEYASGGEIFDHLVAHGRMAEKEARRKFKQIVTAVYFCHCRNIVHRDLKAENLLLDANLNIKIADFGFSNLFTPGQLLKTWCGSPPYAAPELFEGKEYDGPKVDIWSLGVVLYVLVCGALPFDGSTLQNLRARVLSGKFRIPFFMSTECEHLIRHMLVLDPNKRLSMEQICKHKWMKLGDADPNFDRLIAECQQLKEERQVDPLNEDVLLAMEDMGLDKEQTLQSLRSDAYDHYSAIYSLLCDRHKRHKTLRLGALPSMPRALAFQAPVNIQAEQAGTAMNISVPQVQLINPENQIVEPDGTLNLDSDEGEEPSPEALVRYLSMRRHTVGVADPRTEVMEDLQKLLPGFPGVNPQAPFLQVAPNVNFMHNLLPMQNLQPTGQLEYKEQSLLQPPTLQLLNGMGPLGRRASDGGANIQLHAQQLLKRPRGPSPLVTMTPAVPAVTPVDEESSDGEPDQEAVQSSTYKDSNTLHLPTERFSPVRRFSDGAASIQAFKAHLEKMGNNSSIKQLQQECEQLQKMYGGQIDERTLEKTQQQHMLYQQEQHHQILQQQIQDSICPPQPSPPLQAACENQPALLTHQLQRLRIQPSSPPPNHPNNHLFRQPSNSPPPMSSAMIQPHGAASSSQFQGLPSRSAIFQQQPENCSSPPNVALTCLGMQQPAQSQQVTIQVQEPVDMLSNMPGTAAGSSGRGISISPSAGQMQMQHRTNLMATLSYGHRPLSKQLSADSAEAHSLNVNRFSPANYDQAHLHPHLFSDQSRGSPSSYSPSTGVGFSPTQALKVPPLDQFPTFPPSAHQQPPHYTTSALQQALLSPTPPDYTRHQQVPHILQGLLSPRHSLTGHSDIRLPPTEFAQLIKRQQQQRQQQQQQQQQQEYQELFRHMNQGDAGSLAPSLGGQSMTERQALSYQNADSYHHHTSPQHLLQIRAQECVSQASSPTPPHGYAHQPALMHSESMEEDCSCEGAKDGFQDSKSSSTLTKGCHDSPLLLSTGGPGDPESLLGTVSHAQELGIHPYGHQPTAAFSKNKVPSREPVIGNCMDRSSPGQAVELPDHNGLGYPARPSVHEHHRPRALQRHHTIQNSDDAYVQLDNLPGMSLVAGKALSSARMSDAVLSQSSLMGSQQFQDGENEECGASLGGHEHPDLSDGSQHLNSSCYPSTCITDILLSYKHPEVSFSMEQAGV
Out: 8.00 to 11.00

In: Jot down pIC50 (SIK3 (Homo sapiens, UniProt Q9Y2K2)) of `CNc1cc(-c2cnc3cc(OCCN(C)C)ccn23)cc2c1C(=O)N(CC(F)(F)F)CC2` .
Out: 7.00 to 8.00

In: Fill in: pIC50 on SIK3 (Homo sapiens, UniProt Q9Y2K2), entry `COc1cc(-c2cnc3cc(Oc4ccccn4)ccn23)cc(OC(F)F)c1C(=O)NC1CC1`
Out: 7.00 to 8.00

====

Target: SIK3 (Homo sapiens, UniProt Q9Y2K2)
pIC50: −log10 of the molar value.
Listed molecules paired with reported pIC50

Worked examples follow.
COc1cc(-c2cnc3cc(OCCN4CC5CCC(C4)O5)ccn23)cc(OC(F)F)c1C(=O)NC1CC1 = 8.00 to 11.00
COc1cc(-c2cnc3cc(OCc4cnco4)ccn23)cc2c1C(=O)N(CC(F)(F)F)CC2 = 8.00 to 11.00
COc1cc(-c2cnc3cc(OCCCN4CCCCC4)ccn23)cc(OC(F)F)c1C(=O)N1CC(O)(C(F)F)C1 = 8.00 to 11.00
CCNCCOc1ccn2c(-c3cc(OC)c(C(=O)NC4CC4)c(OC(F)F)c3)cnc2c1 = 8.00 to 11.00
COc1cc(-c2cnc3cc(OCCCN4CCCCC4)ccn23)cc(OC(F)F)c1C(=O)N1CC(O)(CC#N)C1 = 6.30 to 7.00
COc1cc(-c2cnc3cc(OCCCN4C5CCC4COC5)ccn23)cc(OC(F)F)c1C(=O)NC1CC1 = 8.00 to 11.00
COc1cc(-c2cnc3cc(OCCC4CCCN4C(C)C)ccn23)cc(OC(F)F)c1C(=O)NC1CC1 (stereo not drawn) = 8.00 to 11.00
CCn1ccnc1COc1ccn2c(-c3cc(OC)c(C(=O)NC4CC4)c(OC(F)F)c3)cnc2c1 = 8.00 to 11.00
COc1cc(-c2cnc3cc(OCCCN4CCC(F)(F)C(O)C4)ccn23)cc(OC(F)F)c1C(=O)NC1CC1 (stereo not drawn) = 8.00 to 11.00
COc1cc(-c2cnc3cc(OC4(C#N)CCCC4)ccn23)cc(OC(F)F)c1C(=O)NC1CC1 = 7.00 to 8.00

In: Read the entry COc1cc(-c2cnc3cc(OCC4COCCN4C)ccn23)cc(OC(F)F)c1C(=O)NC1CC1 (stereo not drawn) and write its reported pIC50.
Out: 8.00 to 11.00

In: Report pIC50 for `COc1cc(-c2cnc3cc(OCCN4CCN(C(C)C)CC4)ccn23)cc(OC(F)F)c1C(=O)NC1CC1`
Out: 8.00 to 11.00

In: Tell me its pIC50 given `COc1cc(-c2cnc3cc(OCC4CN(CCO)C4)ccn23)cc(OC(F)F)c1C(=O)NC1CC1` as the entry.
Out: 8.00 to 11.00

In: Provide measured pIC50 value, entry: `COc1cc(-c2cnc3cc(OCc4cnco4)ccn23)cc(OC(F)F)c1C(=O)NC1CC1`
Out: 8.00 to 11.00

In: Please give measured pIC50 of the following entry: COc1cc(-c2cnc3cc(OCCCN4CCCCC4)ccn23)cc(OC(F)F)c1C(=O)N[C@H]1CC[C@H]1O (racemic)
Out: 7.00 to 8.00

====

// IC50 collected for SIK3 (Homo sapiens, UniProt Q9Y2K2)

Use the examples below as a reference point.
COc1ccn2c(-c3cc4c(c(OC)c3)C(=O)N(CC(F)(F)F)CC4)cnc2c1 [Cpd 256] = 10 to 100 nM
COc1cc(-c2cnc3cc(OCC(C)(C)N)ccn23)cc(OC(F)F)c1C(=O)NC1CC1 [compound 104] = 0.01 to 10 nM
COc1cc(-c2cnc3cc(OC4CCN(C)CC4)ccn23)cc(OC(F)F)c1C(=O)NC1CC1 [compound 7] = 10 to 100 nM

Turning to the following molecule.
In: Please give the documented IC50 of COc1cc(-c2cnc3cc(OC[C@@H]4CCCN(C(C)C)C4)ccn23)cc(OC(F)F)c1C(=O)NC1CC1 [compound 338]
Out: 0.01 to 10 nM

====

Molecular target: SIK1 (Homo sapiens)
Construct: purchased Carna Biosciences 02-131
Assay: ADP-Glo kinase assay, SIK1
Format: biochemical
Settings: ADP-Glo SIK kinase assay
Assay Endpoint: IC50

The following compounds have reported results that may help.
COc1cc(-c2cnc3cc(OC(C)CN4CCOCC4)ccn23)cc(OC(F)F)c1C(=O)NC1CC1 (stereo not drawn) = > 500 nM
COc1cc(-c2cnc3cc(OCC4(C)CCCN4)ccn23)cc(OC(F)F)c1C(=O)NC1CC1 (stereo not drawn) = 100 to 500 nM
CCOC(=O)C1(C)CCN(CCCOc2ccn3c(-c4cc(OC)c(C(=O)NC5CC5)c(OC(F)F)c4)cnc3c2)CC1 = 10 to 100 nM
COc1cc(-c2cnc3cc(OCCCOS(C)(=O)=O)ccn23)cc(OC(F)F)c1C(=O)NC1CC1 = 10 to 100 nM

In: Using the record for `CN(C)CCOc1ccn2c(-c3cc(OC(F)F)c(C(=O)NC4CC4)c(OC(F)F)c3)cnc2c1` , state its measured IC50.
Out: 10 to 100 nM

In: Answer with reported IC50 of COc1cc(-c2cnc3cc(OCC4COCCO4)ccn23)cc(OC(F)F)c1C(=O)NC1CC1 (stereo not drawn)
Out: 10 to 100 nM

Measured values drawn from patent US12264156B2 for this set.
